subject of test: Menin/MLL (terbium chelate-labeled menin, FITC-MBM1 peptide) (Homo sapiens, UniProt O00255, T541A)
Construct: Menin (a.a. 1-610-6×his tag) was labeled with terbium cryptate as follows
Sequence (O00255 with tags, fused parts or gaps T541A): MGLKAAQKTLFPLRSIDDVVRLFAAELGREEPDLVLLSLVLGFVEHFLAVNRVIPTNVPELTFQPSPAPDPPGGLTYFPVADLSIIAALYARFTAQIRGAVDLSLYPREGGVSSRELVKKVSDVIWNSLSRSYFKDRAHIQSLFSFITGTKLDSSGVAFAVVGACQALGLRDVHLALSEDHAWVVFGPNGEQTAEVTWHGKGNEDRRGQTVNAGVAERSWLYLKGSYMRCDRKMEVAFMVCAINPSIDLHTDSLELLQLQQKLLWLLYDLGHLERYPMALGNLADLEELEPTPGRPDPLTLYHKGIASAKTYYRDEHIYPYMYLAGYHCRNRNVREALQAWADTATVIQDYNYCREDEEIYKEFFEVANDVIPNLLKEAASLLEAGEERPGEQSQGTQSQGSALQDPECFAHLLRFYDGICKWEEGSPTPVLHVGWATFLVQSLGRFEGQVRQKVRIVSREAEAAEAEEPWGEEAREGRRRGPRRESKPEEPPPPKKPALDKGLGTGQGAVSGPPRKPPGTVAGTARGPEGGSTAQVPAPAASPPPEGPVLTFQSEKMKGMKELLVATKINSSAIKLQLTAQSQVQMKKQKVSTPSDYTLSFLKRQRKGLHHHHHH
assay details: Menin/MLL homogenous time-resolved fluorescence (HTRF) assay
Type: binding
condition parameters: averaged values over all measurements; read-out: Menin HTRF assay (IC50)
pIC50: −log10 of the molar value.
quantity name: pIC50

P = Fc1ccccc1CN1CC[C@@H]2CN(c3ncnc4sc(CC(F)(F)F)cc34)CC[C@@H]21 (single isomer, unassigned) [Compound 7]
Q = FC(F)(F)Cc1cc2c(N3CC[C@H]4[C@H](CCN4Cc4ccccc4)C3)ncnc2s1 (single isomer, unassigned) [Compound 4]
Ask: I would appreciate it if you could say which entry, P or Q , has the lower pIC50 value. Kindly give the label for the entry you pick.
Result: P
